# System: K4 kissing-loop RNA reporter;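 also: bound reporter read as fluorescence of individual clusters on recovered sequencing chips by microscopy, with normalized cluster intensities fitted with a binding model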
# ASSAY_OVERVIEW: apparent KD of K4 kissing-loop reporter; higher = weaker reporter binding
# SETTINGS: Eterna round: R107; input ligand: theophylline 20 uM
Collected apparent KD of K4 kissing-loop reporter values appear next to each entry.
Give the number first and the unit second.

// query apparent KD of K4 kissing-loop reporter value for entry AAUAUAGUGAUGUUAUAUAAGAAGGAGUUACGAGGACCGGUACGGCCGCCACUCGAAACGAGUGAGGGCCCGGGAGAUUGGGCCC [SSTryptA.G]
436 nM

----------
# Test system: MS2 coat protein
# ASSAY_OVERVIEW: apparent KD of MS2 coat protein; designed switch direction (-1 OFF switch, 1 ON switch): -1; higher = weaker reporter binding
# SETTINGS: input ligand: none
Labels assigned by apparent KD of MS2 coat protein range: A = under 30 nM, B = from 30 nM up to 80 nM, C = 80 nM and over

UGCUACGGAGGAUAUACAUGAGGAUCACCCAUGUGAUAGAUUAUCGCGAAAGCGUAAUGUAGAAGGCCGUAGCU [jl-ex3-4.11 jl mod] (Eterna round: R97, puzzle: Exclusion 3) = B

Kindly state the category for this sequence: AAGUGGUGAGGAUAUAUAUACCAAUCUUCGAGGCACGACCAACAUGAGGAUCACCCAUGUAGAAGGCACCACAA [Eternabot (Original) Solution 39] (Eterna round: R97, puzzle: Exclusion 2)
A

Kindly state the category for this sequence: AGAUGCUCAAGUCGACAUGAGGAUCACCCAUGUACAAUUAACGAGGAUAUCCGAGAUAAAUAAUAGGAGAAGGCGUGAUCAUGA [Mat - Exclusion NG 3 - Mod of JL - D54] (Eterna round: R96, puzzle: Exclusion NG 3)
C

Kindly state the category for this sequence: CGUCUGUGAGGAUAUGGUAUCGUUUACAUGAGGAUCACCCAUGUUACAUGGGACUAGAGACUAGAAGGUACUGACG [EX5 #47] (Eterna round: R97, puzzle: Exclusion 5)
C

Kindly state the category for this sequence: ACAUGAGGAUCACCCAUGUGAAAAGAAUGGCUGACACAGAGAUAGGAUAUGUGUGCAUAUCUAACACAGAAGGGUCAUGACUGG [Deportation 80 - Jieux - Exclusion NG 3] (Eterna round: R96, puzzle: Exclusion NG 3)
B

Kindly state the category for this sequence: GCAAGCUUAAUCUGUAUGAACAUGAGGAUCACCCAUGUAUAAGGGAAUUCUUUUGGGUUUUUUAUUGCUCGUCUUAU [JR_STOV1_Sub024] (Eterna round: R97, puzzle: Sensor, turn-off variant 1)
C

----------
# Test system: MS2 coat protein
# ASSAY_OVERVIEW: apparent KD of MS2 coat protein, switch ON state; designed switch direction (-1 OFF switch, 1 ON switch): -1; higher = weaker reporter binding
# SETTINGS: FMN input: 0 or 200 uM; Eterna round: R93 (includes R88 designs)
Collected apparent KD of MS2 coat protein values appear next to each entry.
Give the number first and the unit second.

AAAAAGGGAGGAUAUGCAUACACACAAAAAAAAAAAAAAAAACAUGAGGAUCACCCAUGUAGAAGGCCCAAAAA [Dora Explored 4 - Jieux - Exclusion 2] = 21.1 nM
AACUAGUGAGGAUAUACAAGAAAAAAAAAAAAAAUAAAGGGACAUGAGGAUCACCCAUGUAGAAGGCACUAACA [Diamond 69] = 37.7 nM
AAAACGGUAGGAUAUACAGUCCGUUGUCGAAUGAUGAAAAGACAUGAGGAUCACCCAUGUAGAAGGACCGAAAA [Bienor] = 36.5 nM
AAAAAACAUGAGGAUCACCCAUGUAAGGAUAUGCGAAAAUAAAAUAAAAUAAAAUAAAGCAGAAGGUACAAAAA [66%, Wbt, 1] = 32.6 nM

// query apparent KD of MS2 coat protein value for entry AGCACGUCAGGAUAUACGAAAAAAAAGGGAAACAACAAGGGACAUGAGGAUCACCCAUGUAGAAGGGACUAGCA [Diamond 97]
49.4 nM

// query apparent KD of MS2 coat protein value for entry AGUAGUACAGGAUAUACAUGAGGAUCACCCAUGUGAGAAUUAAGUGGCGUACCACAAAGUAGAAGGGUACUACA [Mat - Exclusion 3 - JL mod - D38]
40.1 nM

// query apparent KD of MS2 coat protein value for entry AAAAAGUGAGGAUAUGUCAAAGGUCACGAAAGUGACAAAGGACAGAAGGCACAUGAGGAUCACCCAUGUGGAAA [Fiskers Exclusion 4D1 65% - Early + late G segment 3]
27.3 nM
